Test system: RXF 393 renal
Assay: NCI-60 one-dose screen, 48 h (100 = growth as untreated, 0 = no growth, -100 = all killed)
Settings: 10 µM unless noted
Compounds without any hit were thinned out: in the full panel of roughly 83,000, 20% have a hit.
Lab note: compare growth with 50%, writing T if less and F if equal or more.

[[record]]
molecule = "CCCCCCCC/C=C\\CCCCCCCCOc1ccccc1CC(=O)NCC[N+]1(C)CCCCC1"
group = "T"

[[record]]
molecule = "CCNC(=O)Oc1ccc(/C(=C(/C)Cc2ccc(OC)cc2)c2ccc(OCCN3CCCC3)cc2)cc1"
group = "F"

[[record]]
molecule = "Oc1c(CN2CCCC2)cc(COCc2ccccc2)c2cccnc12"
group = "T"

[[record]]
molecule = "CC(C)c1ccc(C(=O)Nc2sc3cc(O)ccc3c2C#N)cc1"
group = "T"

[[record]]
molecule = "COc1cc2c3c(n(CCCCNCCCn4c5c(c6cc(OC)c(OC)cc6c4=O)C(=O)c4cc6c(cc4-5)OCO6)c(=O)c2cc1OC)-c1cc2c(cc1C3=O)OCO2"
group = "F"

[[record]]
molecule = "O=C(CCCCNC(=O)c1cc(=O)c(O)co1)Nc1ccccc1"
group = "F"

[[record]]
molecule = "O=C1NC(=C(Cl)Cl)/C(=N/S(=O)(=O)N2CCCCC2)N1"
group = "T"

[[record]]
molecule = "N#Cc1c(Nc2ccc(F)cc2)n[nH]c1-c1cccs1"
group = "F"

[[record]]
molecule = "Clc1nccc2c(-c3csc(-c4c[nH]c5ccccc45)n3)c[nH]c12"
group = "T"

[[record]]
molecule = "CNCc1cccc2c1OCCOCCN(C)C(=O)CN(C)S(=O)(=O)c1ccc(cc1)-c1cnc(N)c(n1)C(=O)N2"
group = "T"

[[record]]
molecule = "COC(=O)c1c2c(n3ccc(C)cc13)C(=O)c1ccccc1C2=O"
group = "F"

[[record]]
molecule = "O=C(CCC(=O)c1nc2ncccc2[nH]1)NN1C(=O)CSC1c1ccc(Cl)cc1 (stereo unspecified)"
group = "F"

[[record]]
molecule = "Cc1cccc(NC(=O)CSc2nc3ccc([N+](=O)[O-])cc3[nH]2)c1"
group = "F"

[[record]]
molecule = "COc1cccc(/C=C/C(=O)c2cc3c(N)c(C(=O)Nc4cccc(Cl)c4C)sc3nc2C)c1"
group = "T"

[[record]]
molecule = "C[C@H]1[C@H](C)CC[C@]2(C(=O)O)CC[C@]3(C)C(=CC[C@@H]4[C@@]5(C)C[C@@H](Cc6cn([C@@H]7O[C@H](CO)[C@@H](O)[C@H](O)[C@H]7O)nn6)[C@H](O)C(C)(C)[C@@H]5CC[C@]43C)[C@H]12"
group = "F"


----------
Test system: SW-620 colon
Test: NCI-60 one-dose screen, 48 h (100 = growth as untreated, 0 = no growth, -100 = all killed)
Details: 10 µM unless noted
Compounds without any hit were thinned out: in the full panel of roughly 83,000, 20% have a hit.
Is growth at least 30%? Then yes (1). If not, no (0).

[[record]]
compoundsmiles = "CCOC(=O)N1CCN(S(=O)(=O)c2oc(-c3ccc(Cl)cc3)nc2C#N)CC1"
group = "no (0)"

[[record]]
compoundsmiles = "CCCCCn1sc(=O)n(Cc2ccc(CNC(=O)OCc3ccc4c(Cl)cc(Cl)c(O)c4n3)cc2)c1=O"
group = "yes (1)"

[[record]]
compoundsmiles = "CCOC(=O)C(=Cc1cccc(C#N)c1)C(=O)OCC"
group = "no (0)"

[[record]]
compoundsmiles = "COc1ccc(-c2cn(-c3ccc(Cl)cc3)c(SCC(=O)c3ccc([N+](=O)[O-])cc3)n2)cc1"
group = "yes (1)"

[[record]]
compoundsmiles = "COc1ccc2c(c1)c(-c1nc(-c3cn(C)c4ncccc34)cs1)cn2CCO"
group = "yes (1)"

[[record]]
compoundsmiles = "C#Cc1cccc(Nc2nc3ccc([N+](=O)[O-])cc3nc2Nc2cccc(C#C)c2)c1"
group = "no (0)"

[[record]]
compoundsmiles = "COCC[C@H]1CCC/C=C/[C@@H]2C[C@H](O)C[C@H]2[C@H](O)/C=C/C(=O)O1"
group = "no (0)"

[[record]]
compoundsmiles = "FC(F)(F)c1[nH]ncc1-c1nc2c(N3CCCCC3)cc3[nH]ncc3c2c2c1CCCC2"
group = "no (0)"

[[record]]
compoundsmiles = "Cc1ccc(C(=O)c2ccc(CC(=O)N/N=C/c3ccc(O)cc3O)n2C)cc1"
group = "yes (1)"

[[record]]
compoundsmiles = "CCCCCCCCCCCCCCCCCCOc1ccccc1CC(=O)OCC[N+]1(C)CCOCC1"
group = "yes (1)"

[[record]]
compoundsmiles = "Cc1cc(C)c(-c2c(O)c(Br)c(-c3c(C)cc(C)c(Br)c3C)c(O)c2Br)c(C)c1Br"
group = "no (0)"

[[record]]
compoundsmiles = "O=C(Nc1ccccc1)c1sc(-c2ccccc2)cc1O"
group = "yes (1)"

[[record]]
compoundsmiles = "NS(=O)(=O)c1ccc(N/C=C/C(=O)c2cc3ccccc3oc2=O)cc1"
group = "yes (1)"

